Reported % Measurement value (conversion rate to 2-acetylnaphtho[2,3-b]furan-4,9-dione) values are given for each entry in this list.
- Protocol notes: Evaluation of a conversion rate to 2-acetylnaphtho[2,3-b]furan-4,9-dione in human plasma
- Format: in vitro ADME
- Condition label: Human plasma, 1 umol/L, 37° C., incubation time 120 min
Readout: % Measurement value (conversion rate to 2-acetylnaphtho[2,3-b]furan-4,9-dione)

CC(=O)c1cc2c(OC(=O)NC3CNC3)c3ccccc3c(OC(=O)NC3CNC3)c2o1.Cl.Cl [Example 10]
89%
CC(=O)c1cc2c(OC(=O)NC3CCC(N)CC3)c3ccccc3c(OC(=O)NC3CCC(N)CC3)c2o1.Cl.Cl (stereo not shown) [Example 7]
69%
CC(=O)c1cc2c(OC(=O)NCCCCN)c3ccccc3c(O)c2o1.Cl [Example 74]
70%
CC(=O)c1cc2c(OC(=O)NC3CCNCC3)c3ccccc3c(OC(=O)NC3CCNCC3)c2o1.Cl.Cl [Example 8]
79%

---

- Protocol notes: Solubility test
- Condition label: glycine buffer solution, pH 2, aqueous buffer, thermodynamic from solid
Counter-ions that a name gives are not always drawn.
Readout: solubility at 24 hours

CCCCCCCC(=O)Oc1c2ccccc2c(OC(=O)CCCCCCC)c2oc(C(C)=O)cc12 [reference compound]
< 0.1 µg/mL
CC(=O)c1cc2c(OC(=O)OCCC[C@H](N)C(=O)O)c3ccccc3c(OC(=O)OCCC[C@H](N)C(=O)O)c2o1
> 5000 µg/mL
CC(=O)c1cc2c(OC(=O)OCCCCNCC(=O)O)c3ccccc3c(OC(=O)OCCCCNCC(=O)O)c2o1 [Example 23, dihydrochloride]
> 5000 µg/mL
CC(=O)c1cc2c(OC(=O)C(C)(C)C)c3ccccc3c(OC(=O)C(C)(C)C)c2o1 [reference compound]
< 0.1 µg/mL

---

Reported % Measurement value (conversion rate to 2-acetylnaphtho[2,3-b]furan-4,9-dione) values are given for each entry in this list.
- Protocol notes: Evaluation of a conversion rate to 2-acetylnaphtho[2,3-b]furan-4,9-dione in CD1 mouse plasma
- Assay type: in vitro ADME
- Condition label: CD1 mouse plasma, 1 umol/L, 37° C., incubation time 120 min
Readout: % Measurement value (conversion rate to 2-acetylnaphtho[2,3-b]furan-4,9-dione) (%)

COC(=O)[C@@H](N)CCNC(=O)Oc1c2ccccc2c(OC(=O)NCC[C@H](N)C(=O)OC)c2oc(C(C)=O)cc12.Cl.Cl [Example 11]
100
CCNCCCCOC(=O)Oc1c2ccccc2c(OC(=O)OCCCCNCC)c2oc(C(C)=O)cc12.Cl.Cl [Example 28]
85
COC(=O)[C@@H](N)CNC(=O)Oc1c2ccccc2c(OC(=O)NC[C@H](N)C(=O)OC)c2oc(C(C)=O)cc12.Cl.Cl [Example 32]
74
CC(=O)c1cc2c(OC(=O)NCCCNCC(=O)O)c3ccccc3c(OC(=O)NCCCNCC(=O)O)c2o1.Cl.Cl [Example 40]
86
CC(=O)c1cc2c(OC(=O)NC3CCC(N)CC3)c3ccccc3c(OC(=O)NC3CCC(N)CC3)c2o1.Cl.Cl (stereo not shown) [Example 7]
51
CC(=O)c1cc2c(OC(=O)NCCCCCCN)c3ccccc3c(OC(=O)NCCCCCCN)c2o1.Cl.Cl [Example 37]
33
CC(=O)c1cc2c(OC(=O)NCCNCC(=O)NCC(=O)O)c3ccccc3c(OC(=O)NCCNCC(=O)NCC(=O)O)c2o1.Cl.Cl [Example 41]
81

---

- Protocol notes: Evaluation of a conversion rate to 2-acetylnaphtho[2,3-b]furan-4,9-dione in pH 7.4 phosphate buffer solution
- Format: physicochemical
- Condition label: Phosphate buffer solution (pH 7.4), 1 umol/L, 37° C., incubation time 120 min
Structures can show the parent of a compound that is named as a salt.
Readout: % Measurement value (conversion rate to 2-acetylnaphtho[2,3-b]furan-4,9-dione) (%)

CC(=O)c1cc2c(OC(=O)NCCN)c3ccccc3c(OC(=O)NCCN)c2o1 [Example 2]
59
CC(=O)c1cc2c(OC(=O)NCCCNCC(=O)NCC(=O)O)c3ccccc3c(OC(=O)NCCCNCC(=O)NCC(=O)O)c2o1.Cl.Cl [Example 64]
40
CC(=O)c1cc2c(OC(=O)NCCNCCC(=O)O)c3ccccc3c(O)c2o1 [Example 17, hydrochloride]
80
CC(=O)c1cc2c(OC(=O)NCCCNCC(=O)O)c3ccccc3c(O)c2o1.Cl [Example 77]
66
CC(=O)c1cc2c(OC(=O)NCCCCN)c3ccccc3c(O)c2o1.Cl [Example 74]
82
CC(=O)c1cc2c(O)c3ccccc3c(OC(=O)NCCNCCS(C)(=O)=O)c2o1.Cl [Example 81]
27
CC(=O)c1cc2c(OC(=O)NCCNCCS(C)(=O)=O)c3ccccc3c(OC(=O)NCCNCCS(C)(=O)=O)c2o1.Cl.Cl [Example 61]
55
CC(=O)c1cc2c(OC(=O)NCCOCCN)c3ccccc3c(OC(=O)NCCOCCN)c2o1.Cl.Cl [Example 9]
50
COC(=O)[C@@H](N)CNC(=O)Oc1c2ccccc2c(OC(=O)NC[C@H](N)C(=O)OC)c2oc(C(C)=O)cc12.Cl.Cl [Example 32]
46
CC(=O)c1cc2c(OC(=O)NCCCNCCS(=O)(=O)N(C)C)c3ccccc3c(OC(=O)NCCCNCCS(=O)(=O)N(C)C)c2o1.Cl.Cl [Example 59]
66
CC(=O)c1cc2c(OC(=O)NCCCCCCN)c3ccccc3c(OC(=O)NCCCCCCN)c2o1.Cl.Cl [Example 37]
17
CN[C@@H](CCNC(=O)Oc1c2ccccc2c(OC(=O)NCC[C@@H](NC)C(=O)O)c2cc(C(C)=O)oc12)C(=O)O [Example 3, dihydrochloride]
40
CC(=O)c1cc2c(OC(=O)NCCNCc3ccccc3)c3ccccc3c(OC(=O)NCCNCc3ccccc3)c2o1.Cl.Cl [Example 55]
63
CC(=O)c1cc2c(OC(=O)NCCCNCCN)c3ccccc3c(OC(=O)NCCCNCCN)c2o1.Cl.Cl [Example 52]
55
CC(=O)c1cc2c(OC(=O)NCCCCCN)c3ccccc3c(O)c2o1.Cl [Example 72]
38

---

Reported solubility at 24 hours values are given for each entry in this list.
- Protocol notes: Solubility test
- Condition label: pH 2, aqueous buffer, thermodynamic from solid
Structures can show the parent of a compound that is named as a salt.
Readout: solubility at 24 hours

COC(=O)[C@@H](N)CCNC(=O)Oc1c2ccccc2c(OC(=O)NCC[C@H](N)C(=O)OC)c2oc(C(C)=O)cc12 [Example 105, monohydrate]
> 5000 µg/mL
CC(=O)c1cc2c(OC(=O)NCCNCC(=O)O)c3ccccc3c(OC(=O)NCCNCC(=O)O)c2o1 [Example 98, trifluoroacetate salt monohydrate]
> 5000 µg/mL

---

- Protocol notes: Evaluation of a conversion rate to 2-acetylnaphtho[2,3-b]furan-4,9-dione in pH 7.4 phosphate buffer solution
- Type: physicochemical
- Condition label: Phosphate buffer solution (pH 7.4), 1 umol/L, 37° C., incubation time 120 min
Rule: measured % Measurement value (conversion rate to 2-acetylnaphtho[2,3-b]furan-4,9-dione) below 60% gets Satisfied; anything equal to or greater than 60% gets Not satisfied.

CC(=O)c1cc2c(OC(=O)NCCCNCCOC(N)=O)c3ccccc3c(OC(=O)NCCCNCCOC(N)=O)c2o1.Cl.Cl [Example 66]
Satisfied
CC(=O)c1cc2c(OC(=O)NCCNCC(F)(F)F)c3ccccc3c(OC(=O)NCCNCC(F)(F)F)c2o1.Cl.Cl [Example 45]
Satisfied
CCNCCCCOC(=O)Oc1c2ccccc2c(OC(=O)OCCCCNCC)c2oc(C(C)=O)cc12.Cl.Cl [Example 28]
Satisfied
CC(=O)c1cc2c(OC(=O)NCCCNCCS(C)(=O)=O)c3ccccc3c(OC(=O)NCCCNCCS(C)(=O)=O)c2o1.Cl.Cl [Example 60]
Satisfied
COC(=O)[C@@H](N)CCNC(=O)Oc1c2ccccc2c(OC(=O)NCC[C@H](N)C(=O)OC)c2oc(C(C)=O)cc12 [Example 106]
Satisfied
CC(=O)c1cc2c(O)c3ccccc3c(OC(=O)NCCCN)c2o1.Cl [Example 20]
Satisfied
CC(=O)c1cc2c(OC(=O)NCCNCC(=O)O)c3ccccc3c(O)c2o1.Cl [Example 71]
Not satisfied
COC(=O)OCCNCCCNC(=O)Oc1c2ccccc2c(O)c2cc(C(C)=O)oc12.Cl [Example 92]
Satisfied
COC(=O)[C@@H](N)CCNC(=O)Oc1c2ccccc2c(OC(=O)NCC[C@H](N)C(=O)OC)c2oc(C(C)=O)cc12.Cl.Cl [Example 11]
Satisfied
COC(=O)OCCNCCCNC(=O)Oc1c2ccccc2c(OC(=O)NCCCNCCOC(=O)OC)c2oc(C(C)=O)cc12.Cl.Cl [Example 70]
Satisfied
CC(=O)c1cc2c(OC(=O)NCCCCCCCCN)c3ccccc3c(OC(=O)NCCCCCCCCN)c2o1.Cl.Cl [Example 39]
Satisfied
CC(=O)c1cc2c(OC(=O)NCCNCCF)c3ccccc3c(OC(=O)NCCNCCF)c2o1.Cl.Cl [Example 43]
Not satisfied
COC(=O)OCCNCCNC(=O)Oc1c2ccccc2c(OC(=O)NCCNCCOC(=O)OC)c2oc(C(C)=O)cc12.Cl.Cl [Example 69]
Not satisfied
CC(=O)c1cc2c(O)c3ccccc3c(OC(=O)NCCNCC(=O)NCC(=O)O)c2o1.Cl [Example 83]
Satisfied
CC(=O)c1cc2c(OC(=O)NCCCN)c3ccccc3c(OC(=O)NCCCN)c2o1 [Example 1]
Not satisfied

Hey, just so you know, these numbers are from patent US10800752B2.
